# Tested on: Huh7 cells
# measurement description: TC50 assay in Huh7 cells, 48 h (CellTiter 96)
# measurement parameters: read-out: TC50; Huh7 cells, 48 h exposure
metric: CC50

>  <molecule>
COc1cc(C(=O)Nc2ccn([C@@H]3O[C@H](CO)[C@@H](O)C3(F)F)c(=O)n2)cc(OC)c1OC

>  <measured value>
495 µM

$$$$

###

# Test system: HEK293
# measurement description: TC50 assay with human cancer cell lines, 96 h: HEK293
# Format: cell-based
# measurement parameters: HEK293, 96 h of treatment, read-out: TC50 HEK293

>  <molecule>
O=C(Nc1ccn(C2O[C@H](CO)[C@@H](O)C2(F)F)c(=O)n1)c1ccc2c(c1)OCO2 (stereo partly shown)

>  <test system>
HEK293

>  <unit symbol>
nM

>  <CC50>
4090

$$$$
>  <molecule>
CCCC(CCC)C(=O)Nc1ccn(C2O[C@H](CO)[C@@H](O)C2(F)F)c(=O)n1 (stereo partly shown)

>  <test system>
HEK293

>  <unit symbol>
nM

>  <CC50>
15100

$$$$
>  <molecule>
Nc1ccn([C@@H]2O[C@H](CO)[C@@H](O)C2(F)F)c(=O)n1 [Gemcitabine, 2′,2′-difluorodeoxycytidine, reference compound]

>  <test system>
HEK293

>  <unit symbol>
nM

>  <CC50>
560

$$$$
>  <molecule>
COc1cc(C(=O)Nc2ccn([C@@H]3O[C@H](CO)[C@@H](O)C3(F)F)c(=O)n2)cc(OC)c1OC

>  <test system>
HEK293

>  <unit symbol>
nM

>  <CC50>
1280

$$$$

###

# Tested on: Huh7
# measurement description: TC50 assay with human cancer cell lines, 96 h: Huh7
# Assay type: cell-based
# measurement parameters: Huh-7, 96 h, read-out: TC50 Huh7 (μM)
metric: CC50 (µM)

>  <molecule>
CCCC(CCC)C(=O)Nc1ccn([C@@H]2O[C@H](CO[P@@](=O)(N[C@@H](C)C(=O)OC(C)C)Oc3ccccc3)[C@@H](O)C2(F)F)c(=O)n1 [Compound 1]

>  <measured value>
3.28

$$$$
>  <molecule>
CC(C)OC(=O)[C@H](C)N[P@](=O)(OC[C@H]1O[C@@H](n2ccc(N)nc2=O)C(F)(F)C1O)Oc1ccccc1 (stereo partly shown) [Phosphorylated analog of Gemcitabine]

>  <measured value>
4.15

$$$$
>  <molecule>
CC(C)OC(=O)[C@H](C)N[P@](=O)(OC[C@H]1O[C@@H](n2ccc(NC(=O)c3ccc4c(c3)OCO4)nc2=O)C(F)(F)C1O)Oc1ccccc1 (stereo in doubt) [Compound 4]

>  <measured value>
5.5

$$$$
>  <molecule>
COc1cc(C(=O)Nc2ccn([C@@H]3O[C@H](CO[P@@](=O)(N[C@@H](C)C(=O)OC(C)C)Oc4ccccc4)C(O)C3(F)F)c(=O)n2)cc(OC)c1OC (stereo in doubt) [Compound 3]

>  <measured value>
8.37

$$$$

###

# measurement description: TC50 assay in Huh7 cells, 48 h (CellTiter 96)
# measurement parameters: human

>  <molecule>
CC(C)OC(=O)[C@H](C)NP(=O)(OC[C@H]1OC(n2ccc(NC(=O)C3Cc4ccccc4C3)nc2=O)C(F)(F)[C@@H]1O)Oc1ccccc1 (stereo in doubt)

>  <CC50 at 48 h>
236 µM

$$$$
>  <molecule>
COc1cc(C(=O)Nc2ccn([C@@H]3O[C@H](CO[P@@](=O)(N[C@@H](C)C(=O)OC(C)C)Oc4ccccc4)C(O)C3(F)F)c(=O)n2)cc(OC)c1OC (stereo in doubt)

>  <CC50 at 48 h>
57.5 µM

$$$$
>  <molecule>
CC(C)OC(=O)[C@H](C)N[P@](=O)(OC[C@H]1O[C@@H](n2ccc(NC(=O)c3ccc4c(c3)OCO4)nc2=O)C(F)(F)C1O)Oc1ccccc1 (stereo in doubt)

>  <CC50 at 48 h>
41.5 µM

$$$$
>  <molecule>
CCCC(CCC)C(=O)Nc1ccn([C@@H]2O[C@H](CO[P@@](=O)(N[C@@H](C)C(=O)OC(C)C)Oc3ccccc3)[C@@H](O)C2(F)F)c(=O)n1

>  <CC50 at 48 h>
17.4 µM

$$$$

###

Reported Therapeutic Index (TC50/IC50) values follow for various compounds
# System: HCV luciferase replicon
# measurement description: IC50 assay: inhibition of the HCV luciferase replicon in Huh7 cells
# Format: cell-based
# measurement parameters: TC50 in Huh7 / IC50 HCV replicon, 48 h

>  <compound>
O=C(Nc1ccn(C2O[C@H](CO)[C@@H](O)C2(F)F)c(=O)n1)c1ccc2ccccc2c1 (stereo partly shown)

>  <Therapeutic Index (TC50/IC50)>
992

$$$$
>  <compound>
COc1cc(C(=O)Nc2ccn([C@@H]3O[C@H](CO)[C@@H](O)C3(F)F)c(=O)n2)cc(OC)c1OC

>  <Therapeutic Index (TC50/IC50)>
10040

$$$$
>  <compound>
O=C(Nc1ccn(C2O[C@H](CO)[C@@H](O)C2(F)F)c(=O)n1)c1cccc2c1CCCC2 (stereo partly shown)

>  <Therapeutic Index (TC50/IC50)>
571

$$$$

###

Reported CC50 is given for each of the following compounds.
# Test system: MCF-7
# measurement description: TC50 assay with human cancer cell lines, 96 h: MCF-7
# Type: cell-based
# measurement parameters: MCF7, 96 h, read-out: TC50 MCF-7 (μM)
metric: CC50 (µM)

>  <compound>
COc1cc(C(=O)Nc2ccn([C@@H]3O[C@H](CO[P@@](=O)(N[C@@H](C)C(=O)OC(C)C)Oc4ccccc4)C(O)C3(F)F)c(=O)n2)cc(OC)c1OC (stereo in doubt)

>  <unit symbol>
µM

>  <measured value>
0.683

$$$$
>  <compound>
CC(C)OC(=O)[C@H](C)N[P@](=O)(OC[C@H]1O[C@@H](n2ccc(NC(=O)c3ccc4c(c3)OCO4)nc2=O)C(F)(F)C1O)Oc1ccccc1 (stereo in doubt)

>  <unit symbol>
µM

>  <measured value>
1.93

$$$$
>  <compound>
CC(C)OC(=O)[C@H](C)N[P@](=O)(OC[C@H]1O[C@@H](n2ccc(N)nc2=O)C(F)(F)C1O)Oc1ccccc1 (stereo partly shown)

>  <unit symbol>
µM

>  <measured value>
0.115

$$$$
>  <compound>
CCCC(CCC)C(=O)Nc1ccn([C@@H]2O[C@H](CO[P@@](=O)(N[C@@H](C)C(=O)OC(C)C)Oc3ccccc3)[C@@H](O)C2(F)F)c(=O)n1

>  <unit symbol>
µM

>  <measured value>
1.76

$$$$

###

# Tested on: RPK9 cells
# measurement description: TC50 assay in gemcitabine resistant (dCK deficient) RPK9 cells, 48 h
# measurement parameters: read-out: TC50 (μM) in RPK9 cells at 48 hr

>  <molecule>
CCCC(CCC)C(=O)Nc1ccn([C@@H]2O[C@H](CO[P@@](=O)(N[C@@H](C)C(=O)OC(C)C)Oc3ccccc3)[C@@H](O)C2(F)F)c(=O)n1

>  <unit symbol>
µM

>  <result modifier>
=

>  <CC50>
24.2

$$$$
>  <molecule>
CC(C)OC(=O)[C@H](C)N[P@](=O)(OC[C@H]1O[C@@H](n2ccc(N)nc2=O)C(F)(F)C1O)Oc1ccccc1 (stereo partly drawn)

>  <unit symbol>
µM

>  <result modifier>
=

>  <CC50>
21

$$$$
>  <molecule>
O=C(Nc1ccn(C2O[C@H](CO)[C@@H](O)C2(F)F)c(=O)n1)c1ccc2c(c1)OCO2 (stereo partly drawn)

>  <unit symbol>
µM

>  <result modifier>
>

>  <CC50>
500

$$$$
>  <molecule>
Nc1ccn([C@@H]2O[C@H](CO)[C@@H](O)C2(F)F)c(=O)n1 [Gemcitabine, 2′,2′-difluorodeoxycytidine, reference compound]

>  <unit symbol>
µM

>  <result modifier>
>

>  <CC50>
500

$$$$
>  <molecule>
COc1cc(C(=O)Nc2ccn([C@@H]3O[C@H](CO)[C@@H](O)C3(F)F)c(=O)n2)cc(OC)c1OC

>  <unit symbol>
µM

>  <result modifier>
>

>  <CC50>
500

$$$$
>  <molecule>
CC(C)OC(=O)[C@H](C)N[P@](=O)(OC[C@H]1O[C@@H](n2ccc(NC(=O)c3ccc4c(c3)OCO4)nc2=O)C(F)(F)C1O)Oc1ccccc1 (stereo in doubt)

>  <unit symbol>
µM

>  <result modifier>
=

>  <CC50>
20.3

$$$$
>  <molecule>
CCCC(CCC)C(=O)Nc1ccn(C2O[C@H](CO)[C@@H](O)C2(F)F)c(=O)n1 (stereo partly drawn)

>  <unit symbol>
µM

>  <result modifier>
>

>  <CC50>
500

$$$$
>  <molecule>
CCCC(CCC)C(=O)Nc1ccn([C@@H]2O[C@@H]3CO[P@@](=O)(OC(C)C)O[C@H]3C2(F)F)c(=O)n1

>  <unit symbol>
µM

>  <result modifier>
=

>  <CC50>
537

$$$$
>  <molecule>
COc1cc(C(=O)Nc2ccn([C@@H]3O[C@H](CO[P@@](=O)(N[C@@H](C)C(=O)OC(C)C)Oc4ccccc4)C(O)C3(F)F)c(=O)n2)cc(OC)c1OC (stereo in doubt)

>  <unit symbol>
µM

>  <result modifier>
=

>  <CC50>
24.2

$$$$
